Recorded values, source paper PMC9486168.

- Test System: AC8/CaM PPI (Homo sapiens)
- Construct: confirmed as an AC1/AC8 non-selective hit against full-length AC1- and AC8-CaM in the NanoBiT assay; The hCaM residues 1–149, residues 1–1,248 of rat AC8 (rAC8); expressed in transfected cells; host or cells: HEK293T, transient transfection
- Test Details: AC8/CaM NanoBiT assay in HEK293T cells
- Type: cell-based, rat
- Measurement Conditions: HEK293T, thapsigargin-stimulated, AUC; read-out: Nanobit: AC8-CaM IC50 (μM ± SEM)
I'd be grateful if you could share measured IC50 for these entries.
Entry rule: numbers only, all in µM.

## Input Output measured IC50 for this item: `Cn1cc(C(=O)Nc2ccc(Cl)cc2Cl)c2[nH]c(=O)n(-c3ccc(Cl)cc3)c(=O)c21`
## Output 6.8

## Input Output measured IC50 for this item: CCCCC(CC)CNC(=N)NC(=N)NCCCCCCNC(=N)NC(=N)NCC(CC)CCCC (stereo not shown)
## Output 16.5

## Input Output measured IC50 for this item: `CNC(=O)C1=C(Nc2ccc(N(C)C)cc2)c2ccccc2S1(=O)=O`
## Output 70.3

## Input Output measured IC50 for this item: `CCc1oc2ccccc2c1C(=O)c1cc(Br)c(O)c(Br)c1`
## Output 4.16

###

I'd be grateful if you could share measured Ki ratio (AC8-C2b/AC1) for these entries.
- Test System: AC8-C2b/CaM (Homo sapiens)
- Construct: made in house; host or cells: E. coli BL21-CodonPlus (DE3)-RIPL
- Test Details: AC8-C2b/CaM FP counterscreen assay;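 further: fluorescence polarization of AC peptide binding to GST-CaM in HEPES buffer with KCl and 50 µM CaCl2, compound preincubated 30 min with GST-CaM, DMSO and calmidazolium as controls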
- Format: binding
- Measurement Conditions: ratio >1: more potent in AC1/CaM FP
Where a name gives a salt, the structure may show the parent alone.
Respond with the number and no other words.

## Input Report Ki ratio (AC8-C2b/AC1) under test system AC8-C2b/CaM (Homo sapiens) for `CNC(=O)C1=C(Nc2ccc(N(C)C)cc2)c2ccccc2S1(=O)=O` .
## Output 0.44

## Input Report Ki ratio (AC8-C2b/AC1) under test system AC8-C2b/CaM (Homo sapiens) for [H]/N=C(\N/C(=N/[H])NCCCCCCNC(=N)NC(=N)Nc1ccc(Cl)cc1)Nc1ccc(Cl)cc1 [Compound 9, Chlorhexidine HCl] .
## Output 4.0

## Input Report Ki ratio (AC8-C2b/AC1) under test system AC8-C2b/CaM (Homo sapiens) for `CN(C(=O)CN(CCO)CC(=O)N(C)C(C)(C)Cc1ccccc1)C(C)(C)Cc1ccccc1` .
## Output 7.1

## Input Report Ki ratio (AC8-C2b/AC1) under test system AC8-C2b/CaM (Homo sapiens) for CC1=C(CCC(=O)O)c2cc3[nH]c(cc4nc(cc5[nH]c(cc1n2)c(C)c5C(C)O)C(C)=C4C(C)O)c(C)c3CCC(=O)O (centres unmarked) .
## Output 2.9

## Input Report Ki ratio (AC8-C2b/AC1) under test system AC8-C2b/CaM (Homo sapiens) for O=C1c2c(O)ccc(O)c2C(=O)c2c(NCCNCCO)ccc(NCCNCCO)c21 [Compound 11, Mitoxantrone HCl] .
## Output 1.3

## Input Report Ki ratio (AC8-C2b/AC1) under test system AC8-C2b/CaM (Homo sapiens) for `CCCCCCCCOc1ccccc1C(=O)Nc1ccc(C(=O)OCC[N+](C)(CC)CC)cc1` .
## Output 2.5

## Input Report Ki ratio (AC8-C2b/AC1) under test system AC8-C2b/CaM (Homo sapiens) for Cc1cc2nc3ccc(N(C)C)cc3[s+]c2cc1N [Compound 1, Tolonium Chloride] .
## Output 1.5

## Input Report Ki ratio (AC8-C2b/AC1) under test system AC8-C2b/CaM (Homo sapiens) for CCCCC(CC)CNC(=N)NC(=N)NCCCCCCNC(=N)NC(=N)NCC(CC)CCCC (centres unmarked) .
## Output 3.9

## Input Report Ki ratio (AC8-C2b/AC1) under test system AC8-C2b/CaM (Homo sapiens) for `CCCCCCCCCCCCCCCC[N+](C)(C)CCN(Cc1ccc(OC)cc1)c1ncccn1` .
## Output 3.7
